Reference source for all entries: ChEMBL document CHEMBL1127512

What Ratio was measured for each of the following?
target: Opioid receptors; mu & kappa (Homo sapiens) (UniProt P41145+P35372); test: Selectivity ratio of kappa opioid receptor to that of mu opioid receptor; format: protein assay
Sequence (P35372 whole entry, looked up): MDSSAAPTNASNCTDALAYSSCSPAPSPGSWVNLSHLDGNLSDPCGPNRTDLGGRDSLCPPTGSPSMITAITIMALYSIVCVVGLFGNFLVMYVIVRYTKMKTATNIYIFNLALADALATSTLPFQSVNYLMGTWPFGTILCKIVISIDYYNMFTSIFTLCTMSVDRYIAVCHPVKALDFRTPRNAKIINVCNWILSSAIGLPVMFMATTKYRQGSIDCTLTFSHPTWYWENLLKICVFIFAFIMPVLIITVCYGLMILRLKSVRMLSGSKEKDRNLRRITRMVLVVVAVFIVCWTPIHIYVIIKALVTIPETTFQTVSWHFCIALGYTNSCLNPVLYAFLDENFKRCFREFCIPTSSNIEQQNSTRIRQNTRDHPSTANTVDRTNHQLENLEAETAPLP
Sequence (P41145 whole entry, looked up): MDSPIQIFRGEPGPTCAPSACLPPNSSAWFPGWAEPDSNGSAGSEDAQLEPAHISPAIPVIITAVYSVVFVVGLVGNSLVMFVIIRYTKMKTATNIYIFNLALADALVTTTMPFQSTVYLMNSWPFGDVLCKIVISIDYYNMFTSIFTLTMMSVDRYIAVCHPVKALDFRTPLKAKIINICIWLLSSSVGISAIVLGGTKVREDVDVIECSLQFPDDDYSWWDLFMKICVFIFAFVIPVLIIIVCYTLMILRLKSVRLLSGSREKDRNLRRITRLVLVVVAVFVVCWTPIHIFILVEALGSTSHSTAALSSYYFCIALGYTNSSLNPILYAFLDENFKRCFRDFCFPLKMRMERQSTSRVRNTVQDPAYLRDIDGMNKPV
Answer as a number with no unit attached.

input: Give its Ratio value. Item: NCC(=O)NCC(=O)N1CC[C@]23c4c5ccc(O)c4O[C@H]2c2[nH]c4c(c2C[C@@]3(O)[C@H]1C5)C[C@@]1(O)[C@H]2Cc3ccc(O)c5c3[C@@]1(CCN2CC1CC1)[C@H]4O5
output: 4.8

input: Give its Ratio value. Item: N=C(N)NCCN1CC[C@]23c4c5ccc(O)c4O[C@H]2c2[nH]c4c(c2C[C@@]3(O)[C@H]1C5)C[C@@]1(O)[C@H]2Cc3ccc(O)c5c3C1(CCN2CC1CC1)[C@H]4O5
output: 15

input: Look at this molecule and give its reported Ratio. O=C(NCCN1CC[C@]23c4c5ccc(O)c4O[C@H]2c2[nH]c4c(c2C[C@@]3(O)C1=C5)C[C@@]1(O)[C@H]2Cc3ccc(O)c5c3[C@@]1(CCN2CC1CC1)[C@H]4O5)OCc1ccccc1
output: 5.7

input: Value lookup for Ratio; key = NCCN1CC[C@]23c4c5ccc(O)c4O[C@H]2c2[nH]c4c(c2C[C@@]3(O)[C@H]1C5)C[C@@]1(O)[C@H]2Cc3ccc(O)c5c3[C@@]1(CCN2CC1CC1)[C@H]4O5
output: 12.5

====

molecular target: UniProtKB P41144; test: Selectivity ratio of kappa opioid receptor to that of delta opioid receptor
Sequence (P41144 whole entry): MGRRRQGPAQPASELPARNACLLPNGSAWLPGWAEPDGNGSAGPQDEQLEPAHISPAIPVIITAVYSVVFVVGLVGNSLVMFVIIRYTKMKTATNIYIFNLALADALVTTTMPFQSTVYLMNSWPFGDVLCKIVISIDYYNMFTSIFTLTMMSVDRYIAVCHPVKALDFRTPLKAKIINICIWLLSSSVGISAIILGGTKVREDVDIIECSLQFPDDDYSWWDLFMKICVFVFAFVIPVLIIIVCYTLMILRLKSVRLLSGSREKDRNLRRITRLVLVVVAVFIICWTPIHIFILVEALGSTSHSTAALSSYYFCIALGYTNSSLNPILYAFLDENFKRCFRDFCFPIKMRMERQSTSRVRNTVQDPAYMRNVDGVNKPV
I'd be grateful if you could share measured Ratio for these entries.
I'd appreciate a reply containing only the number, no unit.

input: What value of Ratio has been reported for the following compound? CC(=O)N1CC[C@]23c4c5ccc(O)c4O[C@H]2c2[nH]c4c(c2C[C@@]3(O)[C@H]1C5)C[C@@]1(O)[C@H]2Cc3ccc(O)c5c3[C@@]1(CCN2CC1CC1)[C@H]4O5
output: 1.5

input: Need Ratio of CCCCCN1CC[C@]23c4c5ccc(O)c4O[C@H]2c2[nH]c4c(c2C[C@@]3(O)[C@H]1C5)C[C@@]1(O)[C@H]2Cc3ccc(O)c5c3[C@@]1(CCN2CC1CC1)[C@H]4O5 , thanks.
output: 8.7

input: Fill in: Ratio of Oc1ccc2c3c1O[C@H]1c4[nH]c5c(c4C[C@@]4(O)[C@@H](C2)N(CCc2ccccc2)CC[C@]314)C[C@@]1(O)[C@H]2Cc3ccc(O)c4c3[C@@]1(CCN2CC1CC1)[C@H]5O4 is ___
output: 181

input: Recorded Ratio of NCC(=O)N1CC[C@]23c4c5ccc(O)c4O[C@H]2c2[nH]c4c(c2C[C@@]3(O)[C@H]1C5)C[C@@]1(O)[C@H]2Cc3ccc(O)c5c3[C@@]1(CCN2CC1CC1)[C@H]4O5 , please.
output: 5.4

input: I have this compound here, Oc1ccc2c3c1O[C@H]1c4[nH]c5c(c4C[C@@]4(O)[C@@H](C2)NCC[C@]314)C[C@@]1(O)[C@H]2Cc3ccc(O)c4c3[C@@]1(CCN2CC1CC1)[C@H]5O4 , and I need its recorded Ratio.
output: 4.8

input: Could you tell me which Ratio is on file for CCN1CC[C@]23c4c5ccc(O)c4O[C@H]2c2[nH]c4c(c2C[C@@]3(O)[C@H]1C5)C[C@@]1(O)[C@H]2Cc3ccc(O)c5c3[C@@]1(CCN2CC1CC1)[C@H]4O5 ?
output: 3.5
